Recorded EC50 by entry
Target: ZCCHC8 (UniProt Q6NZY4)
Sequence: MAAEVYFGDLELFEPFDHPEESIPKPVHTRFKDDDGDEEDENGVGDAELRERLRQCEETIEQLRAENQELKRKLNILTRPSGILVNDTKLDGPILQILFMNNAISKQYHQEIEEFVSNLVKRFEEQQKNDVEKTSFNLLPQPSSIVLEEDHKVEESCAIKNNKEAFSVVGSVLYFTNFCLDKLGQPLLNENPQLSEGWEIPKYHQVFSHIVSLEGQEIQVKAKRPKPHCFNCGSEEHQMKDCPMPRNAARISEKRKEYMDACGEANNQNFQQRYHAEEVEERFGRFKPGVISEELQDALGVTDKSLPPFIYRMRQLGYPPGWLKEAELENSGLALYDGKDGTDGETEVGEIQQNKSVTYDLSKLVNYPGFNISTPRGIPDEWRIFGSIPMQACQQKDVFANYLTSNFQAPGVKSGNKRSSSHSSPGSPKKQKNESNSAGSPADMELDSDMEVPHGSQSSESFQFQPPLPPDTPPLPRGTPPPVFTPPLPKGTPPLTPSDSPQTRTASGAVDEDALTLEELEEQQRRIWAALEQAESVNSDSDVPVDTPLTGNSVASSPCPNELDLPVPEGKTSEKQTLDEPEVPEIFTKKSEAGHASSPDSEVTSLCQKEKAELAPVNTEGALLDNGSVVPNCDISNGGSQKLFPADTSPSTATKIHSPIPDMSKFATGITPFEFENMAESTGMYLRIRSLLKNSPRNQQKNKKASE
Assay: EC50 of free RNA motif oligo competing protein binding to immobilised probe
MEASUREMENT KIND: EC50

* UAUUUAU | 615 nM
* AAUAAA | 2460 nM
* CUGUCCU | 3110 nM
